- experiment.description: Stability of cannabinoid entourage and Vitamin E components of the powder concentrate by LCMSMS
- Format: physicochemical
- applied.conditions: powder stored at 21-25° C.; 510 days
- Procedure: At each time period, 0.05 g of powder was dissolved in 10 ml-15 of ethanol, diluted to fall within the analytical range, and injected into the LCMSMS for analysis.
parameter: Stability of Plant-Derived Cannabinoid Compounds in Powder Concentrate (mg/g powder)
Answer in mg/g powder, number only, no unit symbol.

compound	test.value
C=C(C)[C@@H]1CCC(C)=C[C@H]1c1c(O)cc(CCCCC)cc1O [CBD, cannabidiol, reference compound]	6.01

IN: What value of Stability of Plant-Derived Cannabinoid Compounds in Powder Concentrate has been recorded for this entry: CCCCCc1cc(O)c(C/C=C(\C)CCC=C(C)C)c(O)c1 [CBG, cannabigerol]
OUT: 1.07

IN: Any idea what its Stability of Plant-Derived Cannabinoid Compounds in Powder Concentrate is? The compound is CCCCCc1cc(O)c2c(c1)OC(C)(C)[C@@H]1CCC(C)=C[C@@H]21 [D9 THC, delta-9-tetrahydrocannabinol, reference compound]
OUT: 2.64

IN: Could you share which Stability of Plant-Derived Cannabinoid Compounds in Powder Concentrate value was measured for CCCCCc1cc(O)c2c(c1)OC(C)(C)c1ccc(C)cc1-2 [CBN, cannabinol] ?
OUT: 0.499

Reference for the values: patent US20260130395A1
